Assay: Stability in phosphate buffered saline
Format: physicochemical
Settings: phosphate buffered saline, pH 7.4, PBS pH 7.4, 0.01 M phosphate, 150 μM, first-order kinetics, UV 280 nm; read-out: half-life (t1/2)
Classification field: Condition met = half-life at 150 μM at or over 3 h; Condition not met = half-life at 150 μM under 3 h.

| compound | className |
| --- | --- |
| Oc1ccc([C@H]2Oc3c(c(O)cc(O)c3C(c3cc(O)c(O)c(O)c3)c3c(O)cc(O)c4c3O[C@H](c3ccc(O)c(O)c3)[C@H](O)C4)C[C@H]2O)cc1O | Condition not met |
| Oc1ccc([C@H]2Oc3c(Cc4c(O)cc(O)c5c4O[C@H](c4ccc(O)c(O)c4)[C@H](O)C5)c(O)cc(O)c3C[C@H]2O)cc1O [Compound 2, Epicatechin–methylene–epicatechin] | Condition not met |
| O=C(O[C@@H]1Cc2c(O)cc(O)cc2O[C@@H]1c1cc(O)c(O)c(O)c1)c1cc(O)c(O)c(O)c1 [Compound 14, Epigallocatechin-3-gallate, reference compound] | Condition not met |
| Oc1ccc(C(c2c(O)cc(O)c3c2O[C@H](c2ccc(O)c(O)c2)[C@@H](O)C3)c2c(O)cc(O)c3c2O[C@H](c2ccc(O)c(O)c2)[C@@H](O)C3)cc1O | Condition not met |
| Oc1ccc([C@H]2Oc3c(c(O)cc(O)c3C(c3ccco3)c3c(O)cc(O)c4c3O[C@H](c3ccc(O)c(O)c3)[C@@H](O)C4)C[C@@H]2O)cc1O | Condition met |
| Oc1cc(O)c2c(c1)O[C@H](c1ccc(O)c(O)c1)[C@H](O)[C@H]2c1c(O)cc(O)c2c1O[C@H](c1ccc(O)c(O)c1)[C@H](O)C2 [Compound 12, PC B2, reference compound] | Condition met |
| Oc1ccc([C@H]2Oc3c(Cc4c(O)cc(O)c5c4O[C@H](c4ccc(O)c(O)c4)[C@@H](O)C5)c(O)cc(O)c3C[C@@H]2O)cc1O | Condition met |
| O=C(O)C(c1c(O)cc(O)c2c1O[C@H](c1ccc(O)c(O)c1)[C@@H](O)C2)c1c(O)cc(O)c2c1O[C@H](c1ccc(O)c(O)c1)[C@@H](O)C2 | Condition met |
| Oc1ccc([C@H]2Oc3c(c(O)cc(O)c3C(c3cc(O)c(O)c(O)c3)c3c(O)cc(O)c4c3O[C@H](c3ccc(O)c(O)c3)[C@@H](O)C4)C[C@@H]2O)cc1O | Condition not met |
| Oc1cc(O)c2c(c1)O[C@H](c1ccc(O)c(O)c1)[C@@H](O)[C@@H]2c1c(O)cc(O)c2c1O[C@H](c1ccc(O)c(O)c1)[C@@H](O)C2 [Compound 11, PC B3, reference compound] | Condition met |
| Oc1cc(O)c2c(c1)O[C@H](c1ccc(O)c(O)c1)[C@H](O)[C@H]2c1c(O)cc(O)c2c1O[C@H](c1ccc(O)c(O)c1)[C@H](O)[C@H]2c1c(O)cc(O)c2c1O[C@H](c1ccc(O)c(O)c1)[C@H](O)C2 [Compound 13, PC C1, reference compound] | Condition met |
| O=C(O)C(c1c(O)cc(O)c2c1O[C@H](c1ccc(O)c(O)c1)[C@H](O)C2)c1c(O)cc(O)c2c1O[C@H](c1ccc(O)c(O)c1)[C@H](O)C2 [Compound 4, Epicatechin–carboxymethine–epicatechin] | Condition met |
| Oc1ccc([C@H]2Oc3c(c(O)cc(O)c3C(c3ccco3)c3c(O)cc(O)c4c3O[C@H](c3ccc(O)c(O)c3)[C@H](O)C4)C[C@H]2O)cc1O [Compound 6, Epicatechin–furanmethine–epicatechin] | Condition met |
| Oc1ccc(C(c2c(O)cc(O)c3c2O[C@H](c2ccc(O)c(O)c2)[C@H](O)C3)c2c(O)cc(O)c3c2O[C@H](c2ccc(O)c(O)c2)[C@H](O)C3)cc1O [Compound 8, Epicatechin–catecholmethine–epicatechin] | Condition not met |
